ASSAY_TARGET: IRAK4 enzyme (Homo sapiens (Human), UniProt Q9NWZ3)
Sequence (Q9NWZ3 whole entry): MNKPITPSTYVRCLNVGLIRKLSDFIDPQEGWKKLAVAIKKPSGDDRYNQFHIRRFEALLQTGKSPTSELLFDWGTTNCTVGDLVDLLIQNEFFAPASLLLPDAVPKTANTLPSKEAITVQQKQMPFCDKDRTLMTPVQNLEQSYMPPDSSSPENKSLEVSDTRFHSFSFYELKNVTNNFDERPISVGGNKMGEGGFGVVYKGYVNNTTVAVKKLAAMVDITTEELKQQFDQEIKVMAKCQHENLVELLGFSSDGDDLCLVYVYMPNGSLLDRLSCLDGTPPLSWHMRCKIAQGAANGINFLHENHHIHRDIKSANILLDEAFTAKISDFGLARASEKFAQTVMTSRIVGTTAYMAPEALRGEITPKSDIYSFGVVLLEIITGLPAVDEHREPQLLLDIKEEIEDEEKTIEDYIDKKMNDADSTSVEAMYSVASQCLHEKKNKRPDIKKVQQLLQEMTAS
RUN_DESCRIPTION: biochemical
Type: biochemical
CONDITION_PARAMETERS: IRAK4 enzyme, TR-FRET (HTRF), 500 μM ATP
EXPERIMENTAL_ENDPOINT: IC50 (nM)
Give a bare numeral; the unit nM is implied.

[
  {
    "COMPOUND": "CC(C)(O)[C@H](F)CNC(=O)c1cnc(-c2ccc3cc(C#N)cnn23)cc1N[C@H]1CC[C@H](CN2CCOC2=O)CC1 [Example 715]",
    "UNITS_LABEL": "nM",
    "OBSERVED_MEASUREMENT": 1
  }
]

From here, focus on the item given below.
Q: Request - read-out IC50 | tested on IRAK4 enzyme (Homo sapiens (Human), UniProt Q9NWZ3) | compound COC(=O)NC[C@H]1C[C@@H](Nc2cc(-c3ccc4cc(C#N)cnn34)ncc2C(=O)NC[C@@H](F)C(C)(C)O)C1 [Example 698]
Result: 3
